The measured values listed here are drawn from ChEMBL document CHEMBL1121621.

- Tested on: Canis familiaris
- method description: Minimum effective dose evaluated in mixed-breed or Beagle dogs after intravenous administration
- Assay type: functional
- condition set: Canis lupus familiaris, read-out: MED
Parameter: minimal effective dose. Scope: all listed entries.
Just the number in mg/kg, nothing appended.

Below: 5 molecules and their reported minimal effective dose.
molecule	tested target	unit	minimal effective dose
CC(C)N(CCC(CCN1CCCCC1)(C(N)=O)c1ccccc1)C(C)C (stereo unspecified)	Canis familiaris	mg/kg	5.5
CC(C)N(CCC(CCCN1CCCCC1)(C(N)=O)c1ccccc1Cl)C(C)C (stereo unspecified)	Canis familiaris	mg/kg	3.5
CC(C)N(CCC(CCN1CCCCC1)(C(N)=O)c1ccc(C(C)(C)C)cc1)C(C)C (stereo unspecified)	Canis familiaris	mg/kg	2.5
CC(C)N(CCC(CCN(C(C)C)C(C)C)(C(N)=O)c1ccccc1Br)C(C)C	Canis familiaris	mg/kg	1.5
CC(C)N(CCC(CCN(C(C)C)C(C)C)(C(N)=O)c1cccc(F)c1)C(C)C	Canis familiaris	mg/kg	3

What reported minimal effective dose corresponds to CC(C)N(CCC(CCN1CC2CCC(CC2)C1)(C(N)=O)c1ccccc1)C(C)C (stereo unspecified) on Canis familiaris?
2.5

Now consider CC(C)N(CCC(CCN(C(C)C)C(C)C)(C(N)=O)c1ccc(Cl)c(Cl)c1)C(C)C .
2.5

Now consider CC(C)N(CCC(CCC1CCCCC1)(C(N)=O)c1ccccc1Cl)C(C)C (stereo unspecified) .
3.5

Now consider CC(C)N(CCC(CCN(C)C)(C(N)=O)c1ccc(F)cc1)C(C)C (stereo unspecified) .
15

Now consider CC(C)N(CCC(CCN(C)C)(C(N)=O)c1ccccc1Cl)C(C)C (stereo unspecified) .
7.5

Now consider CC(C)N(CCC(CCn1cccc1)(C(N)=O)c1ccccc1F)C(C)C (stereo unspecified) .
7.5

* * *

- method description: Therapeutic ratio in mixed-breed or Beagle dogs after intravenous administration of the compound.
- Assay type: ADME, Canis lupus familiaris
- condition set: dog, in vivo, read-out: TR
Criterion: selectivity ratio strictly under 6. Met: label 1. Not met: label 0.

Please review the following examples before continuing.
compound	class
CC(C)N(CCC(CCN1CCCCCC1)(C(N)=O)c1ccccc1F)C(C)C (configuration not stated)	label 0
CCN(CC)CCC(CCN(C(C)C)C(C)C)(C(N)=O)c1ccccc1 (configuration not stated)	label 1
CC(C)N(CCC(CCN(C)C1CCCCC1)(C(N)=O)c1ccccc1)C(C)C (configuration not stated)	label 1

selectivity ratio under 6? Item: CC(C)N(CCC(CCN(C(C)C)C(C)C)(C(N)=O)c1ccccc1Cl)C(C)C
label 1

Now consider Cc1ccc(C(CCN(C(C)C)C(C)C)(CCN(C(C)C)C(C)C)C(N)=O)cc1 .
label 1

Now consider CC(C)N(CCC(CCN(C(C)C)C(C)C)(C(N)=O)c1ccc(F)cc1F)C(C)C .
label 1

* * *

Parameter: ADI. Scope: all listed entries.
- Test system: Canis familiaris
- method description: Activity duration index was evaluated in mixed-breed or Beagle dogs after intravenous administration.
- Type: functional, Canis lupus familiaris

Below: 2 molecules and their reported ADI.
molecule	ADI
CC(C)N(CCC(CCN(C(C)C)C(C)C)(C(N)=O)c1cccc(Cl)c1)C(C)C	1.42
C=C[C@H]1CN2CC[C@H]1C[C@@H]2[C@@H](O)c1ccnc2ccc(OC)cc12	0.4

What reported ADI corresponds to CC(C)N(CCC(CCN1C(C)CCCC1C)(C(N)=O)c1ccccc1F)C(C)C (stereo not given) on Canis familiaris?
2.2

Now consider CC(C)N(CCC(CCN(C(C)C)C(C)C)(C(N)=O)c1ccccc1Cl)C(C)C .
1.57

Now consider CC(C)N(CCC(CCN1CCCCC1)(C(N)=O)c1ccccc1F)C(C)C (stereo not given) .
1.47

Now consider CC(C)N(CCC(CCN1CCCCC1)(C(N)=O)c1ccc(F)cc1)C(C)C (stereo not given) .
0.58

Now consider CC(C)N(CCC(C(N)=O)(c1ccccc1)c1ccccn1)C(C)C (stereo not given) [DISOPYRAMIDE] .
0.5

Now consider CC(C)N(CCC(CCN(C(C)C)C(C)C)(C(N)=O)c1c(Cl)cccc1Cl)C(C)C .
1.2

Now consider CC(C)N(CCC(CCN(C(C)C)C(C)C)(C(N)=O)c1ccc(Cl)c(Cl)c1)C(C)C .
0.63

Now consider CC(C)N(CCC(CCN(C)C)(C(N)=O)c1ccccc1Cl)C(C)C (stereo not given) .
0.31

Now consider CC(C)N(CCC(CCN(C)C)(C(N)=O)c1ccc(F)cc1)C(C)C (stereo not given) .
0.21

Now consider CC(C)N(CCC(CCN1CCCCC1)(C(N)=O)c1ccc(F)cc1F)C(C)C (stereo not given) .
0.42

Now consider CC(C)N(CCC(CCN1CCCCC1)(C(N)=O)c1cccc(Cl)c1)C(C)C (stereo not given) .
0.7

* * *

- method description: Therapeutic ratio was evaluated in mixed-breed or Beagle dogs after intravenous administration of the compound
- Assay type: ADME, Canis lupus familiaris
- condition set: dog, in vivo, read-out: TR
Parameter: selectivity ratio. Scope: all listed entries.
Provide a numeric answer; units are not to be included.

molecule	selectivity ratio
CC(C)N(CCC(CCC1CCCCC1)(C(N)=O)c1ccccc1Cl)C(C)C (configuration not stated)	6.1

We now examine a further molecule.
Any idea what its selectivity ratio is? The molecule is CC(C)N(CCC(CCN(C(C)C)C(C)C)(C(N)=O)c1ccc(C(C)(C)C)cc1)C(C)C
4.9

* * *

- method description: Therapeutic ratio in mixed-breed or Beagle dogs after intravenous administration of the compound.
- Type: ADME, Canis lupus familiaris
- condition set: dog, in vivo, read-out: TR
Criterion: selectivity ratio strictly under 5. Met: condition met. Not met: condition not met.

Please review the following examples before continuing.
compound	class
CC(C)N(CCC(CCn1cccc1)(C(N)=O)c1ccccc1F)C(C)C (stereo unspecified)	condition not met
CC(C)N(CCC(CCN(C(C)C)C(C)C)(C(N)=O)c1ccccc1)C(C)C	condition met
CC(C)N(CCC(CCN1CCCCCC1)(C(N)=O)c1ccccc1)C(C)C (stereo unspecified)	condition not met
CC1CCCCN1CCC(CCN(C(C)C)C(C)C)(C(N)=O)c1ccccc1F (stereo unspecified)	condition met
CC(C)N(CCC(CCN(C(C)C)C(C)C)(C(N)=O)c1cccc(C(F)(F)F)c1)C(C)C	condition met
CC(C)N(CCC(CCN(C(C)C)C(C)C)(C(N)=O)c1ccccc1Br)C(C)C	condition not met
CC(C)N(CCC(CCN1CCCCC1)(C(N)=O)c1ccc(C(C)(C)C)cc1)C(C)C (stereo unspecified)	condition met
CC(C)N(CCC(CCN1CCN2CCCC2C1)(C(N)=O)c1ccccc1)C(C)C (stereo unspecified)	condition not met

selectivity ratio under 5? Item: CC(C)N(CCC(CCN1C(C)CCCC1C)(C(N)=O)c1ccccc1F)C(C)C (stereo unspecified)
condition not met

Now consider CC(C)N(CCC(CCN(C)C)(C(N)=O)c1ccc(C(C)(C)C)cc1)C(C)C (stereo unspecified) .
condition met

Now consider CC(C)N(CCC(CCN(C(C)C)C(C)C)(C(N)=O)c1ccc(F)cc1)C(C)C .
condition not met

Now consider CC(C)N(CCC(CCN(C)C)(C(N)=O)c1ccc(F)cc1)C(C)C (stereo unspecified) .
condition met

Now consider CC(C)N(CCC(CCN1CCCCC1)(C(N)=O)c1cccc(Cl)c1)C(C)C (stereo unspecified) .
condition met

Now consider CC(C)N(CCC(CCN(C)C)(C(N)=O)c1ccccc1)C(C)C (stereo unspecified) .
condition not met

Now consider CC(C)N(CCC(CCN(C(C)C)C(C)C)(C(N)=O)c1ccccc1F)C(C)C .
condition not met

Now consider Cc1ccccc1C(CCN(C(C)C)C(C)C)(CCN(C(C)C)C(C)C)C(N)=O .
condition not met

Now consider CC(C)N(CCC(CCN(C(C)C)C(C)C)(C(N)=O)c1cccc(F)c1)C(C)C .
condition met

Now consider CC(C)N(CCC(CCN1CCCCC1)(C(N)=O)c1ccccc1F)C(C)C (stereo unspecified) .
condition not met

Now consider CC(C)N(CCC(CCN1CCCCC1)(C(N)=O)c1ccccc1Cl)C(C)C (stereo unspecified) [DISOBUTAMIDE] .
condition not met

Now consider CC(C)N(CCC(C(N)=O)(c1ccccc1)c1ccccn1)C(C)C (stereo unspecified) [DISOPYRAMIDE] .
condition not met

Now consider CC(C)N(CCC(CCN(C)C)(C(N)=O)c1ccccc1Cl)C(C)C (stereo unspecified) .
condition met

Now consider CC(C)N(CCC(CCN(C)C1CCCCC1)(C(N)=O)c1ccccc1F)C(C)C (stereo unspecified) .
condition not met

Now consider CC(C)N(CCC(CCN1CCCCC1)(C(N)=O)c1ccccc1Br)C(C)C (stereo unspecified) .
condition not met

Now consider CC(C)N(CCC(CCN(C(C)C)C(C)C)(C(N)=O)c1ccc(Cl)cc1)C(C)C .
condition met

Now consider CC(C)N(CCC(CCN1CCCCC1)(C(N)=O)c1ccccc1)C(C)C (stereo unspecified) .
condition not met
